Numbers sourced from PubChem BioAssay AID1963977.

Test system: 624824-186-R-J3-PDC multicell spheroids, viability;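 further: luminescent signal used as a stand-in for spheroid viability; spheroids exposed to agents for seven days before luminescence read; percent viability relative to DMSO vehicle control wells taken as 100%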
experiment: Anticancer human tumor 624824-186-R-J3-PDC patient-derived colon adenocarcinoma cell line growth inhibition [PI3K]
experimental-context: second compound 3.16 µM; first compound 0.0316 µM; stronger effect = lower value
Description: Combinatorial screen of targeted agents with the PI3K inhibitors inavolisib, alpelisib, duvelisib, and copanlisib in multi-cell type tumor spheroids A high-throughput screen of multi-cell type tumor spheroids was designed to identify active combinations of targeted small molecules and PI3K pathway inhibitors. […] Compounds. […] If the clinical Cmax for an agent had not been determined, the highest concentration tested was 10 microM. […]
Below, each entry is listed with its recorded viability, T/C.

{"molecule": "CC1(C)CCC(Nc2ncc(C(F)(F)F)c(-c3c[nH]c4c(P(C)(C)=O)c(C#N)ccc34)n2)CN1 (stereo unspecified) + CC(Nc1ncnc2nc[nH]c12)c1cc2cccc(Cl)c2c(=O)n1-c1ccccc1", "reading-unit": "%", "viability, T/C": 79.5}
{"molecule": "CCCS(=O)(=O)Nc1ccc(F)c(C(=O)c2c[nH]c3ncc(-c4ccc(Cl)cc4)cc23)c1F + CC(Nc1ncnc2nc[nH]c12)c1cc2cccc(Cl)c2c(=O)n1-c1ccccc1", "reading-unit": "%", "viability, T/C": 100}
{"molecule": "CC(C)NCC(C(=O)N1CCN(c2ncnc3c2C(C)CC3O)CC1)c1ccc(Cl)cc1 (stereo unspecified) + CC(Nc1ncnc2nc[nH]c12)c1cc2cccc(Cl)c2c(=O)n1-c1ccccc1", "reading-unit": "%", "viability, T/C": 93}
{"molecule": "CC(=O)c1c(C)c2cnc(Nc3ccc(N4CCNCC4)cn3)nc2n(C2CCCC2)c1=O + CC(Nc1ncnc2nc[nH]c12)c1cc2cccc(Cl)c2c(=O)n1-c1ccccc1", "reading-unit": "%", "viability, T/C": 99.2}
{"molecule": "CNC(=O)c1ccc(N2C(=S)N(c3ccc(C#N)c(C(F)(F)F)c3)C(=O)C2(C)C)cc1F + CC(Nc1ncnc2nc[nH]c12)c1cc2cccc(Cl)c2c(=O)n1-c1ccccc1", "reading-unit": "%", "viability, T/C": 100}
{"molecule": "CCN1CCN(Cc2ccc(Nc3ncc(F)c(-c4cc(F)c5nc(C)n(C(C)C)c5c4)n3)nc2)CC1 + Cc1nc(NC(=O)N2CCCC2C(N)=O)sc1-c1ccnc(C(C)(C)C(F)(F)F)c1", "reading-unit": "%", "viability, T/C": 77.8}
